Biological target: hQ23 (HEK-293 cell line stably transfected with one of the members of the KCNQ family) (Homo sapiens, UniProt O43525+O43526)
Construct: expressed in transfected cells; host or cells: HEK-293, stably transfected
Sequence (O43526 whole entry): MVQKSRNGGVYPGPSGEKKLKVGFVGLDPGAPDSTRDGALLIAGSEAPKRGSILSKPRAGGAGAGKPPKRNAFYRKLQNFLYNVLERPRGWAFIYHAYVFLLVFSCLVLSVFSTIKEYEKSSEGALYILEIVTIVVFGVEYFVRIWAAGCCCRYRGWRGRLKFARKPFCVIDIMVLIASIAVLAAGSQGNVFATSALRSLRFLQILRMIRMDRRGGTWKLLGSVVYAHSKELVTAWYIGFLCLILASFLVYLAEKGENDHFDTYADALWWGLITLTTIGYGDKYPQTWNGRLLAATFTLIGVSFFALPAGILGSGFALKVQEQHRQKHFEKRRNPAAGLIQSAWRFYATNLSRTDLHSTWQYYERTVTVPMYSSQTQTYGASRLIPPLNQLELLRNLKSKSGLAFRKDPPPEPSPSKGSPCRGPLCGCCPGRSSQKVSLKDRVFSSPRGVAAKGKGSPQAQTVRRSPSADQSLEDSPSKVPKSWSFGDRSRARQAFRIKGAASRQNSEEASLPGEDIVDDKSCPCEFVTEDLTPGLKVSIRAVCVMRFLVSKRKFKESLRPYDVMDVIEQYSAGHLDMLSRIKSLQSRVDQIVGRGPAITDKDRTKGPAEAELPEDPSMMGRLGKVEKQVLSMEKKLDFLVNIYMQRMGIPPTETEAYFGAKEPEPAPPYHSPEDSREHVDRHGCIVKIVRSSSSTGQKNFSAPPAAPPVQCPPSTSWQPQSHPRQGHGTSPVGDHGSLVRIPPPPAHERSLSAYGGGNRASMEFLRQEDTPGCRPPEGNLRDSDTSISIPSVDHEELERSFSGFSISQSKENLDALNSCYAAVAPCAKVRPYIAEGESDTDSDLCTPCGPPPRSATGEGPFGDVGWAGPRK
Sequence (O43525 whole entry): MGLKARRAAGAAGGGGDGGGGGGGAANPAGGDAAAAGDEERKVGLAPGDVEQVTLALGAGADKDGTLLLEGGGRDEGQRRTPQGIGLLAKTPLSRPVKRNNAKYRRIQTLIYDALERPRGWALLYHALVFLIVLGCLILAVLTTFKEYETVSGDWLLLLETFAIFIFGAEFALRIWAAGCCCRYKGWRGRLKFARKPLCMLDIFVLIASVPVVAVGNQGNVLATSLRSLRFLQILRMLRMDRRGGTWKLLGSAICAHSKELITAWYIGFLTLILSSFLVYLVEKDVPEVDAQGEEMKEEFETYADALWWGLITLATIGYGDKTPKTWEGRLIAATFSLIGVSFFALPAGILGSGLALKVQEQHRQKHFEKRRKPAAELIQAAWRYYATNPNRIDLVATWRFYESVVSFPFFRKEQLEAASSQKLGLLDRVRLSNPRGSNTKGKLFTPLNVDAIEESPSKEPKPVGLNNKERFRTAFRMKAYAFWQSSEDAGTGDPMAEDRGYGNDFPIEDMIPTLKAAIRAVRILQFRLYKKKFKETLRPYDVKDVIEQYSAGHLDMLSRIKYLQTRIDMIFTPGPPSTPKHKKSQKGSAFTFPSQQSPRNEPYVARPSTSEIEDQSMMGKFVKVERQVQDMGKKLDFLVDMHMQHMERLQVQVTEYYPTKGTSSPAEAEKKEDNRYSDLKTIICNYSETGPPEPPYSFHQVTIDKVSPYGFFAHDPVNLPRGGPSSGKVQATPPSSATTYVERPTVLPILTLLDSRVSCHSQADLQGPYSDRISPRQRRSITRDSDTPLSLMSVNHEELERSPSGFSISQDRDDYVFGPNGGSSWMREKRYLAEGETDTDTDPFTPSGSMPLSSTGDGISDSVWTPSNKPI
Assay: Thallium flux assay for KCNQ channel blockers (FLIPR, BTC dye)
Assay type: cell-based
Details: Table 2; thallium flux, HEK-293
Assignment: determine reported EC50 for the given compounds.
Please don't drop the unit; write it after the number.

Please report the recorded EC50 for O=C(NCc1ccc2c(c1)OCO2)c1cnc(N2CCCC2)nc1C1(c2ccccc2)CC1 [Example 32] .
413 nM

Requested field: EC50. Item: CC1CCN(c2ncc(C(=O)N3CCc4ccccc4C3)c(C3(c4ccccc4)CC3)n2)CC1 [Example 26]
546 nM

Need EC50 of CC1CCCN(c2ncc(C(=O)NCc3ccc(Cl)cc3Cl)c(C3(c4ccccc4)CC3)n2)C1 (stereo not shown) [Example 40] , thanks.
326 nM

Reported EC50 for CC1CCC(Nc2ncc(C(=O)NCc3cccc4ccccc34)c(C3(c4ccccc4)CC3)n2)CC1 (stereo not shown) [Example 36] : what is it?
586 nM
